Measured Activity, listed per entry.
Target: Stromelysin-1 (Homo sapiens)
Experiment: Inhibition of matrix metalloprotease-3 (Stromelysin-1)
State the answer as a number, implicitly in nM.

CC(C)C[C@@H](C(=O)N[C@H](C(=O)Nc1ccccn1)C(C)(C)C)[C@@H](C(=O)NO)C1CCC(C)CC1 (some centres undefined) :: 20
CNC(=O)[C@@H](NC(=O)[C@H](CC(C)C)[C@@H](C(=O)NO)C1CCN(C)CC1)C(C)(C)C :: 500
CNC(=O)[C@@H](NC(=O)C(CC(C)C)C(O)C(=O)NO)C(C)(C)C (single isomer, unassigned) :: 200
CNC(=O)[C@@H](NC(=O)C(CC(C)C)C(C(=O)NO)C1CCCC1)C(C)(C)C (single isomer, unassigned) :: 30
CC(C)CC(C(=O)N[C@H](C(=O)Nc1ccccn1)C(C)(C)C)C(C(=O)NO)C1CCCC1 (single isomer, unassigned; 12j) :: 20
CNC(=O)[C@@H](NC(=O)[C@H](CC(C)C)[C@@H](C(=O)NO)C1CCC(C)CC1)C(C)(C)C (some centres undefined) :: 40
CC(C)CC(C(=O)N[C@H](C(=O)Nc1ccccn1)C(C)(C)C)C(C(=O)NO)C1CCCCC1 (single isomer, unassigned) :: 20
CNC(=O)[C@@H](NC(=O)C(CC(C)C)C(C(=O)NO)C1CC1)C(C)(C)C (single isomer, unassigned) :: 300

Tested system Stromelysin-1 (Homo sapiens); Activity recorded for CNC(=O)[C@@H](NC(=O)C(CC(C)C)C(C(=O)NO)C1CCC(C(C)(C)C)CC1)C(C)(C)C (single isomer, unassigned) was 100

The compound CNC(=O)[C@@H](NC(=O)C(CC(C)C)C(C(=O)NO)C1CCCCC1)C(C)(C)C (single isomer, unassigned) , tested on Stromelysin-1 (Homo sapiens), showed Activity of 30

The compound CNC(=O)[C@@H](NC(=O)[C@H](CC(C)C)[C@@H](C(=O)NO)C(C)C)C(C)(C)C , tested on Stromelysin-1 (Homo sapiens), showed Activity of 40

Activity of CNC(=O)[C@@H](NC(=O)[C@H](CC(C)C)[C@@H](C(=O)NO)C1CCSC1)C(C)(C)C (some centres undefined) , assay on Stromelysin-1 (Homo sapiens), is 40

Activity value, target or system Stromelysin-1 (Homo sapiens), for CC(C)CC(C(=O)N[C@H](C(=O)Nc1ccccn1)C(C)(C)C)C(C(=O)NO)C1CCCC1 (single isomer, unassigned; 12m) : 50

Readout Activity for CNC(=O)[C@@H](NC(=O)C(CC(C)C)C(C(=O)NO)C1CCC1)C(C)(C)C (single isomer, unassigned) , test system Stromelysin-1 (Homo sapiens), was 50
